Measured values drawn from patent US6458823B1 for this set.

Where a name gives a salt, the structure may show the parent alone.
READOUT_LABEL: melting point

IN: What does the data say about its melting point? Entry: `Cc1nn(C)c(NCC(C)(C)C)c1NCc1ccc(F)cc1`
OUT: 32 to 39 °C

IN: Another compound: `Cc1nn(C)c(NCC(C)(C)C)c1Nc1ccc(C#N)cc1`
OUT: 131 to 134 °C

IN: Another compound: `Cc1nn(C)c(NCC(C)(C)C)c1NCc1ccncc1`
OUT: 88 to 90 °C

IN: Another compound: `Cc1cc(C)c(CNc2c(C)nn(C)c2NCC(C)(C)C)c(C)c1`
OUT: 114 to 120 °C

In the following, a different compound is considered.
IN: What does the data say about its melting point? Entry: Cc1nn(C)c(NCC(C)(C)C)c1NCc1ccc(C#N)cc1 (as salt: tosylate)
OUT: 102 to 104 °C
